target: human CLDN18.2 (human); assay: cell-based or functional assay
CDC EC50, HEK293T-hCLDN18.2 target cells, human serum by entry:
MEASURE NAME: CDC EC50, HEK293T-hCLDN18.2 target cells, human serum (µg/mL)

BINDER: 44F7-chIgG1 (antibody, V domains shown, human-mouse chimeric antibody, human IgG1/kappa constant regions; also called parental chimeric antibody) VH: QVQLQQSGAELVRPGASVKMSCKASGYTFTSYNMHWVKQAPRQGLEWIGTIYPGNGDTSYNQKFKGKATLTVDKSSSTAYMQLSSLTSEDSAVYFCARGGYYGNSLDYWGQGTTLTVSS VL: DIQMTQSPSSLTVTAGEKVTMSCKSSQSLLNSGNQKNYLTWYQQKPGQPPKLLIYWASTRESGVPDRFTGSGSGTDFTLTISSVQAEDLAVYYCQNAYYYPFTFGSGTKLEIKR
RESULT NUMBER: 0.6
//
BINDER: 175D10 (antibody, human IgG1, kappa, V domains shown) VH: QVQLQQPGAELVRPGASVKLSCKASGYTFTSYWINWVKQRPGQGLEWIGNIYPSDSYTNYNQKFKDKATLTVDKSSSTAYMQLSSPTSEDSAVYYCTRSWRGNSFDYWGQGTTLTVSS VL: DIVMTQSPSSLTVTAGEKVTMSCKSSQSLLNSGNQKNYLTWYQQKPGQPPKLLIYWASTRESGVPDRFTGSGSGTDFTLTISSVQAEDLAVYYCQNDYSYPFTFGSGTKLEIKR
RESULT NUMBER: 18.2
//
BINDER: 10B11-chIgG1 (antibody, V domains shown, human-mouse chimeric antibody, human IgG1/kappa constant regions) VH: QVQMKESGAELVKPGASVKISCKASGYAFSTYWMDWVKQRPGKGLEWIGQIYPGNGDTNYNGKFKGKATLTADKSSSTADMQLSSLTSEDSAVYFCARLGYGNSFTYWGQGTLVTVSA VL: DIQVTQSPSSLTVTAGEKVTMSCKSSQSLLNSGNQKNYLTWYQQKPGQPPKLLIYWASTRESGVPDRFTGSGFGTDFTLTISSVQAEDLAVYYCQNAYFYPFTFGSGTKLEIKR
RESULT NUMBER: 1.65

Cited source: patent US20210403552A1
